Would you mind telling me the reported pIC50 of each entry?
- Test system: MCF7
- run-description: Phototoxicity in 3.75 J/cm'2 UV-A irradiated human MCF7 cells after 72 hrs by MTT assay
- Format: functional, cell-based
- reported-conditions: MCF7, light or radiation study
pIC50: −log10 of the molar value.

Query (molecule): `O=c1[nH]c2c(cc1S(=O)(=O)c1ccccc1)CCc1cn(Cc3ccccc3)cc1-2` ; field requested: pIC50
< 4.70

Same lookup for `CCOC(=O)c1c2c(c(C)n1C)-c1[nH]c(=O)c(S(=O)(=O)c3ccccc3)cc1CC2` , please.
5.29

Cool, now `CCOC(=O)c1[nH]c(C)c2c1CCc1cc(S(=O)(=O)c3ccccc3)c(=O)[nH]c1-2`
< 4.70

Subsequent entry: `O=c1[nH]c2c(cc1S(=O)(=O)c1ccccc1)CCc1cn(-c3ccccc3)cc1-2`
< 4.70

Then `Cc1[nH]c(C(=O)O)c2c1-c1[nH]c(=O)c(S(=O)(=O)c3ccccc3)cc1CC2` ?
< 4.70

---

- Test system: LoVo
- run-description: Phototoxicity in 2.5 J/cm'2 UV-A irradiated human LoVo cells after 72 hrs by MTT assay
- Type: functional, cell-based
- reported-conditions: light or radiation study
Provide the reported IC50 of each item.

# get_value(readout='IC50', item= `Cc1c2c(c(C(=O)O)n1C)CCc1cc(S(=O)(=O)c3ccccc3)c(=O)[nH]c1-2` )
> 20 µM

Try `Cc1c2c(cn1C)CCc1cc(S(=O)(=O)c3ccccc3)c(=O)[nH]c1-2` next.
> 20 µM

// same read-out, input: `Cn1cc2c(c1)-c1c(cc(S(=O)(=O)c3ccccc3)c(=O)n1C)CC2`
> 20 µM

Now the same for `CCOC(=O)c1[nH]c(C)c2c1CCc1cc(S(=O)(=O)c3ccccc3)c(=O)n(C)c1-2`
> 20 µM

Another molecule: `Cc1[nH]c(C(=O)O)c2c1-c1[nH]c(=O)c(S(=O)(=O)c3ccccc3)cc1CC2`
> 20 µM

Could you do the same for `Cc1c2c(cn1Cc1ccccc1)CCc1cc(S(=O)(=O)c3ccccc3)c(=O)[nH]c1-2` , please?
> 20 µM

And what about the molecule `Cc1c2c(c(C(=O)O)n1Cc1ccccc1)CCc1cc(S(=O)(=O)c3ccccc3)c(=O)[nH]c1-2` ?
> 20 µM

Proceed to `Cn1c2c(cc(S(=O)(=O)c3ccccc3)c1=O)CCc1cn(-c3ccccc3)cc1-2`
> 20 µM

Item: `O=c1[nH]c2c(cc1S(=O)(=O)c1ccccc1)CCc1cn(-c3ccccc3)cc1-2`
> 20 µM

Subsequent entry: `Cn1cc2c(c1)-c1[nH]c(=O)c(S(=O)(=O)c3ccccc3)cc1CC2`
> 20 µM

Next up: `O=c1[nH]c2c(cc1S(=O)(=O)c1ccccc1)CCc1cn(Cc3ccccc3)cc1-2`
> 20 µM

Moving on to `COc1nc2c(cc1S(=O)(=O)c1ccccc1)CCc1cn(C)cc1-2`
1.9 µM

Now the molecule `CCOC(=O)c1c2c(c(C)n1Cc1ccccc1)-c1c(cc(S(=O)(=O)c3ccccc3)c(=O)n1C)CC2`
12.1 µM

What do we get for `CCOC(=O)c1c2c(c(C)n1C)-c1c(cc(S(=O)(=O)c3ccccc3)c(=O)n1C)CC2` ?
0.7 µM

Hello, the source for this data is ChEMBL document CHEMBL2176901, in case you need it.
